- assay-protocol: in vivo
- condition-parameters: male, CD-1, mouse, ip
readout-type: MTD at 72 h (mg/kg)
Give your result in mg/kg as a bare value.

input: I am curious: what MTD at 72 h value has been reported for O=C(Nc1ccc(Cl)c(C(F)(F)F)c1)NC1COC(CO)C(n2c(NCc3ccccc3)nc3cc(C(F)(F)F)ccc32)C1O (stereo not shown) [ACL20215] ?
output: 100

---

- assay-protocol: in vivo
- condition-parameters: male, Sprague Dawley, rat, iv, 3.5 mg/kg
readout-type: Vd (L/kg)
Please give a number only; it is taken to be in L/kg.

input: // query Vd value for entry O=C(Nc1ccc(Cl)c(C(F)(F)F)c1)NC1COC(CO)C(n2c(NCc3ccccc3)nc3cc(C(F)(F)F)ccc32)C1O (stereo not shown) [ACL20215]
output: 97.2
